measured_target: T1, cMet-Fc fusion protein (extracellular domain of the cMet receptor expressed as an Fc-fusion protein) (human, UniProt P08581 25-932)
T1 construct: extracellular domain; also called soluble cMet-Fc-fusion protein; soluble cMet receptor; not shown: Fc part
T1 sequence (P08581 25-932): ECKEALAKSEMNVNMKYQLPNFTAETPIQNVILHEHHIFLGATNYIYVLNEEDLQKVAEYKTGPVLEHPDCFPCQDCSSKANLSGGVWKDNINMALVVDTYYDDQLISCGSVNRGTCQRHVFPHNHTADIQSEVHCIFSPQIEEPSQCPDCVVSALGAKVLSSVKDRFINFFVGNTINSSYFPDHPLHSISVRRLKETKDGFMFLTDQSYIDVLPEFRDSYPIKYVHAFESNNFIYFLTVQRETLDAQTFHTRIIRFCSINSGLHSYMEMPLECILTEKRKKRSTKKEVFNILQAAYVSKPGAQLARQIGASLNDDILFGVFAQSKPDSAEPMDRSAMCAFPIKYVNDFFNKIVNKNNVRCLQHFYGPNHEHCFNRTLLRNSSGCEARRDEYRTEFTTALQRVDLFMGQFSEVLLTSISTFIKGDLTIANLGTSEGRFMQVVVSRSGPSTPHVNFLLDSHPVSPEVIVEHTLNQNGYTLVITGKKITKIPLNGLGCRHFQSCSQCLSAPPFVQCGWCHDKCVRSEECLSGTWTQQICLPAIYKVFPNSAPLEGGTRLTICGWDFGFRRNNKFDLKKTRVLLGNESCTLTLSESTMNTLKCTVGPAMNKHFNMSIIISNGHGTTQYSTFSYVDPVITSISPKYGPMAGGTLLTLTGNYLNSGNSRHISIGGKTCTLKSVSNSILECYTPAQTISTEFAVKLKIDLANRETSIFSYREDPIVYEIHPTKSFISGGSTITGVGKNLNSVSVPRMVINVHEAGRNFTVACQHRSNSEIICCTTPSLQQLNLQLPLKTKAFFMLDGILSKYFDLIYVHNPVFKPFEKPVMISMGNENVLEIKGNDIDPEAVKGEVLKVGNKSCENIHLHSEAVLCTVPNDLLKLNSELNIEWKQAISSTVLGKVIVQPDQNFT
assay_explanation: phage ELISA on cMet-Fc, competitor HGF 500 ng/mL
Respond with fulfilled for % of binding in the absence of HGF values of 80% and above, not fulfilled for values below.

binder="AGPYSCHSESHDCKLMGT [465-C01 peptide-displaying phage (SEQ ID NO: 032)]" discrete_label="not fulfilled"
binder="AGAFFCSGPPTFMCSLYGT [550-G07 peptide-displaying phage (SEQ ID NO: 098)]" discrete_label="not fulfilled"
binder="AQFMYEKEHYVMSISLPGLWFY [122-D07 peptide-displaying phage (SEQ ID NO: 486)]" discrete_label=fulfilled
binder="AQSPYIFPIDDSGRQIFVIQWG [76-D09 peptide-displaying phage (SEQ ID NO: 463)]" discrete_label=fulfilled
binder="AGHYWCAGPPTFICMGPGT [550-C09 peptide-displaying phage (SEQ ID NO: 062)]" discrete_label="not fulfilled"
binder="AQDPGFSKHSMGHGYPSKMNWG [115-G02 peptide-displaying phage (SEQ ID NO: 471)]" discrete_label="not fulfilled"
